Measured On: mutant G2019S LRRK2 (Homo sapiens (Human), UniProt Q5S007, G2019S)
Sequence (Q5S007 whole entry G2019S): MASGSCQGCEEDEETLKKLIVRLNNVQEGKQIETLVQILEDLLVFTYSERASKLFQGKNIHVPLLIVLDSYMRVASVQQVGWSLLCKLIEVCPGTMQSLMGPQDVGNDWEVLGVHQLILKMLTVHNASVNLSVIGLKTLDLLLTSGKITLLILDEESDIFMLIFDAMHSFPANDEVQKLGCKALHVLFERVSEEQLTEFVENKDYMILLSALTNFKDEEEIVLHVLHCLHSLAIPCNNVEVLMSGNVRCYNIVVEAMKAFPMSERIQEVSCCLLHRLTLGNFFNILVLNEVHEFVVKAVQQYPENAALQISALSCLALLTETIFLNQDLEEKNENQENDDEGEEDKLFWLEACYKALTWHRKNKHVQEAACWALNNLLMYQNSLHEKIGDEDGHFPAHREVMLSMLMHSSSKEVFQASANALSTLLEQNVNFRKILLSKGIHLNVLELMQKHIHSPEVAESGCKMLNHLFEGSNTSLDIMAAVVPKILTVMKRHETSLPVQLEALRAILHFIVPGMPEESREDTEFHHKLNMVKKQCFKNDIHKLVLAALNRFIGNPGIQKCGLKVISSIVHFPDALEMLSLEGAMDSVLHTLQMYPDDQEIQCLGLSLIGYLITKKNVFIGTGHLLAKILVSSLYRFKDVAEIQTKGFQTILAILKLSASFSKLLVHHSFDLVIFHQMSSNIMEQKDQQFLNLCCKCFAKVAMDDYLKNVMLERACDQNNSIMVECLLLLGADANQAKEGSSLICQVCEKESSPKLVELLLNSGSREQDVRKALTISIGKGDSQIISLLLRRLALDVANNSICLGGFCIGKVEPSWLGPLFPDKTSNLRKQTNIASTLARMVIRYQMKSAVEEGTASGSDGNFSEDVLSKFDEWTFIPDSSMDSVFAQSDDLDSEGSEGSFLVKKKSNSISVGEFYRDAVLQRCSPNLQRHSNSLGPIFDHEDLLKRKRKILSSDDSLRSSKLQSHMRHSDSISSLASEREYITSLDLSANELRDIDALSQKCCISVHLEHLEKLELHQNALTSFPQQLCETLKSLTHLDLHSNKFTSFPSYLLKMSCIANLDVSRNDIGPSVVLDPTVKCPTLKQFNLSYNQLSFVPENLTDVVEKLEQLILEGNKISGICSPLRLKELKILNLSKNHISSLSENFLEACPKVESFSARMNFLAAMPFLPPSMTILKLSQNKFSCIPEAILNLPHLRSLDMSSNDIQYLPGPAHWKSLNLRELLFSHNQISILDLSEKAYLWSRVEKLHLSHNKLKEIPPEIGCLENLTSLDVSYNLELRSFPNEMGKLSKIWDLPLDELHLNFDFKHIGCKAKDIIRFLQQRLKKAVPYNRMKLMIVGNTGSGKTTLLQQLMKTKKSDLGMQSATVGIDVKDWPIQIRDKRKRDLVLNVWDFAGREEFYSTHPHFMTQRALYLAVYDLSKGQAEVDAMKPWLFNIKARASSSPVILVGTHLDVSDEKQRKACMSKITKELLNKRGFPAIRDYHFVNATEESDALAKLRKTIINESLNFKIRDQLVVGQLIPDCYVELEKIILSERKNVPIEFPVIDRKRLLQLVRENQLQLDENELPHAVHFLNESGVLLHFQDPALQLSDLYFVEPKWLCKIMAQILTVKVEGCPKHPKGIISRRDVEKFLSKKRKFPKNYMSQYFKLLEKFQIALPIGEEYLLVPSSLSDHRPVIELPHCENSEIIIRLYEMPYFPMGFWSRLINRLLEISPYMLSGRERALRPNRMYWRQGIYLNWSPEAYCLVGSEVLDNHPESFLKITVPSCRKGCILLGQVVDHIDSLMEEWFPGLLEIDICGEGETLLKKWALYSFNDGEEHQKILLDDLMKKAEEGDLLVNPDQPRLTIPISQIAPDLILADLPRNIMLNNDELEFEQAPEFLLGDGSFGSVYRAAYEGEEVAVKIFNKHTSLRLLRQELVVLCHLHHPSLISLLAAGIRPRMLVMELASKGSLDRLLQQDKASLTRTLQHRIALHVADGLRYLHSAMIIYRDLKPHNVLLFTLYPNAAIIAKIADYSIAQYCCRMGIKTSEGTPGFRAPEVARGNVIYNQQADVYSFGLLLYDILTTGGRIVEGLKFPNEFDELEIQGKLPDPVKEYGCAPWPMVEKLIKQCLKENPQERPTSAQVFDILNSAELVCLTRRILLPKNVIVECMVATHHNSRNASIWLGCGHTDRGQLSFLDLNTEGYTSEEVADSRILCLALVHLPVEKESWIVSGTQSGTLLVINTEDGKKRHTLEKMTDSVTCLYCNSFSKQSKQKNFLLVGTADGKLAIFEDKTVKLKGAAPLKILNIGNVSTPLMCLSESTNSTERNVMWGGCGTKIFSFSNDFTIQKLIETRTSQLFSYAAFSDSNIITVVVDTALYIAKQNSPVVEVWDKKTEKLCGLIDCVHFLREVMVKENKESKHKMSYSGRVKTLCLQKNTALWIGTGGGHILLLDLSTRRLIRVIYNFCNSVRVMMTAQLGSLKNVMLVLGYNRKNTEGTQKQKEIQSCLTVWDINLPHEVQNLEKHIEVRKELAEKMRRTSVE
Protocol Description: LRRK2 kinase assay (LanthaScreen), G2019S mutant
Assay type: biochemical
Experimental Setup: G2019S mutant LRRK2; LanthaScreen, LRRKtide substrate; read-out: LRRK2, G2019S IC50
Endpoint Name: IC50 (nM)

# example entries with known answers
- Cc1cn(Cc2nc3cnc4ccc(Cl)cc4c3n2C2CCOCC2(F)F)nn1 (stereo not shown): 7.66
- C[C@@H]1C[C@H](n2c(Cc3cnc(CO)cn3)nc3cnc4ccc(Cl)cc4c32)CCO1: 3.5
- Cc1nnn(Cc2nc3cnc4ccc(C#N)cc4c3n2[C@@H]2CCN(C)C2)n1: 5.04
- FC1(F)COCCC1n1c(Cn2cncn2)nc2cnc3ccc(Cl)cc3c21 (stereo not shown): 8.7
- Cc1nnn(Cc2nc3cnc4ccc(C(F)(F)F)cc4c3n2[C@@H]2CCO[C@H](C)C2)n1: 7.5

I = COc1cnn(Cc2nc3cnc4ccc(Cl)cc4c3n2CC(C)(F)F)c1
II = CN1CC(n2c(Cn3cnnn3)nc3cnc4ccc(Cl)cc4c32)C(F)(F)C1 (stereo not shown) [Example 83]
Lower value for measured IC50? Options: I , II Write the label of whichever entry you select.
I

====

Measured On: LRRK2, WT (GST-tagged truncated LRRK2) (Homo sapiens, UniProt Q5S007)
Protocol Description: LRRK2 kinase assay (LanthaScreen), wild type
Type: biochemical
Experimental Setup: wild type LRRK2; LanthaScreen, LRRKtide substrate
Endpoint Name: IC50 (nM)

# example entries with known answers
* Cc1nnn(Cc2nc3cnc4ccc(Cl)cc4c3n2C2CN(C)CC2(F)F)n1 (stereo not drawn) | 4.48
* Cc1cnc(Cc2nc3cnc4ccc(Cl)cc4c3n2[C@@H]2CCN(C)C2)cn1 | 8.03
* Cc1cc(Cc2nc3cnc4ccc(Cl)cc4c3n2C2CCOC(C(F)F)C2)no1 (stereo not drawn) | 6.6
* CN1CC(n2c(Cn3cnnn3)nc3cnc4ccc(Cl)cc4c32)C(F)(F)C1 (stereo not drawn) [Example 86] | 6.66
* CN1CC(n2c(Cn3cnnn3)nc3cnc4ccc(Cl)cc4c32)C(F)(F)C1 (stereo not drawn) [Example 83] | 7.91

a = Cc1cc(Cc2nc3cnc4ccc(C(F)(F)F)cc4c3n2[C@@H]2CCO[C@H](C)C2)ncn1
b = Cc1nnc(Cc2nc3cnc4ccc(C#N)cc4c3n2[C@@H]2CCN(C)C2)s1
c = C[C@@H]1C[C@H](n2c(Cn3cncn3)nc3cnc4ccc(C(F)(F)F)cc4c32)CCO1
d = CCc1nc2cnc3ccc(Cl)cc3c2n1[C@H]1CCO[C@@H](CC#N)C1
e = Cc1nn2cc(Cc3nc4cnc5ccc(F)cc5c4n3C3CN(C)CC3(F)F)nc2s1 (stereo not drawn)
Hey, can you sort those molecules up there by IC50, smallest first? Return value: ordered labels per request.
e, b, c, a, d

====

Listing of recorded half-life at 1 μM by entry.
Protocol Description: Intrinsic clearance (CLint) in human liver microsomes
Type: in vitro ADME
Experimental Setup: human, liver microsomes, pH 7.4, human liver microsomes, combined substrates 95A and 96 - competition; read-out: T½
// note: answer is a bare numeric in h

* [2H]C([2H])([2H])c1cnc(Cc2nc3cnc4ccc(Cl)cc4c3n2[C@@H]2CCO[C@H](C)C2)cn1 [Example 96] | 2.11

Then there is this compound:
Given the compound Cc1cnc(Cc2nc3cnc4ccc(Cl)cc4c3n2[C@@H]2CCO[C@H](C)C2)cn1 [Example 95A] , what is its reported half-life at 1 μM?
1.1
